- System: Oxysterols receptor LXR-alpha (Homo sapiens) (UniProt Q13133)
- Sequence (Q13133 whole entry, looked up): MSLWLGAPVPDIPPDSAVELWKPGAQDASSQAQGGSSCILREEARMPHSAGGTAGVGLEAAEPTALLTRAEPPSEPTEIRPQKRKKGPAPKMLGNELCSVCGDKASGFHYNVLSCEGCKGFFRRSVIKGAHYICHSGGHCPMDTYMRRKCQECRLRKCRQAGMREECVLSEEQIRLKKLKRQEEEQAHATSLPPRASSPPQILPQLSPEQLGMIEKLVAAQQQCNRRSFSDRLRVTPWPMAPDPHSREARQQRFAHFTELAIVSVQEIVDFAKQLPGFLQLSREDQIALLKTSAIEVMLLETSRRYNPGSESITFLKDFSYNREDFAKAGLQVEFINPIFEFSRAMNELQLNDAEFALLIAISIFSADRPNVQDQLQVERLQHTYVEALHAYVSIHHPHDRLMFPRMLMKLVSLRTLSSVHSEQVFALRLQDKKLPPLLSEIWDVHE
- Assay Overview: ATG_LXRa_TRANS: Attagene TRANS-FACTORIAL HepG2 Assay for human Liver X Receptor alpha (LXRa) (AID 2282980)
- Measurement Conditions: HepG2 Attagene TRANS reporter, LXRa transactivation
Results filed as inconclusive are left out. Activity calls are given as the source filed them. Rule for the calls: active = hit-call score of the fitted dose curve at least 0.9, where 1 is the maximum; inconclusive = response in the unintended direction; inactive = score below 0.9.
# output must be one of YES for active, NO for inactive

Solved cases below.
Query :: How did this test come out for COc1ccc2cc(S(=O)(=O)N[C@H](CC(=O)N[C@H](Cc3ccc(CN4[C@H](C)CCC[C@@H]4C)cc3)C(=O)N(C)C(C)C)c3ccc4c(c3)OCO4)ccc2c1 ?
Result :: NO

Query :: Please share the test call associated with OC12N=C(c3ccccc3)SC1Cc1cc(Cl)ccc12 (centres undefined) .
Result :: NO

Query :: Answer briefly: the call reported for CCCCCCCC[Si](OCC)(OCC)OCC in this assay.
Result :: NO

Next, consider the following compound.
Query :: Could you check what this test reported for CCCCCCCCOC(=O)c1cc(O)c(O)c(O)c1 ?
Result :: YES

* * *

- Read-out: Thyroid Hormone Responsive (THRSP), THRSP (gene 7069)
- Assay Overview: LTEA_HepaRG_THRSP: Life Technologies and Expression Analysis (LTEA) Assay for Thyroid Hormone Responsive (THRSP) using HepaRG (AID 2283536)
- Measurement Conditions: mRNA level, 48 h; actives raise or lower the signal
Activity calls are given as the source filed them. How the source made its calls: active means hit-call score of the fitted dose curve at least 0.9, where 1 is the maximum; inactive means score below 0.9.
Response enum: YES (active), NO (inactive)

Some solved entries appear below for comparison.
Query :: Hi, sorry to bother you, what did the test record for CCCCCCCC[Si](OCC)(OCC)OCC ?
Result :: NO

Query :: Recorded test outcome, item c1ccc2n[nH]nc2c1
Result :: NO

Query :: What did this assay record as the result for CC/C(=C(/CC)c1ccc(O)cc1)c1ccc(O)cc1 ?
Result :: YES

***
Query :: In this assay, the call recorded for CCN(Cc1cccc(S(=O)(=O)O)c1)c1ccc(C(=C2C=CC(=[N+](CC)Cc3cccc(S(=O)(=O)O)c3)C=C2)c2ccccc2S(=O)(=O)[O-])cc1 was what?
Result :: NO

Query :: How was CCN(Cc1cccnc1)C(=O)c1cccc(Cl)c1[C@]1(C)C(=O)N(Cc2ccc(OC)cc2OC)c2ccc(Cl)cc21 classified in this test?
Result :: YES

Query :: // outcome(item) with item = CCCCCCCCOC(=O)c1cc(O)c(O)c(O)c1
Result :: NO

Query :: What did this assay record as the result for O=C(O)c1ccccc1-n1cc(C(=O)O)c(=O)c2cc(Nc3c(F)cc(F)cc3Cl)c(Cl)cc21 ?
Result :: NO

Query :: What did this assay record as the result for CN1C(=O)CC[C@H]1c1cccnc1 ?
Result :: NO

Query :: Entry CCN(CC)C(=O)c1cc(S(=O)(=O)Cc2ccccc2)c(N2CCC(c3ccccc3)CC2)cc1N(CC)CCN(C)C : call = ?
Result :: YES

Query :: What is the recorded call for this molecule in the test? Cc1cccc2ccccc12
Result :: NO

Query :: Check the results log: what was the call for O=C1CCC(C2CCCCC2)CC1 ?
Result :: NO

Query :: Any idea what this test logged for O=c1c(-c2ccc(O)cc2)coc2cc(O)cc(O)c12 ?
Result :: NO

* * *

- Read-out: Alpha-fetoprotein (AFP) gene, AFP (gene 174)
- Assay Overview: LTEA_HepaRG_AFP: Life Technologies and Expression Analysis (LTEA) Assay for Alpha-fetoprotein (AFP) gene using HepaRG (AID 2283472)
- Measurement Conditions: mRNA level, 48 h; actives raise or lower the signal
Activity calls are given as the source filed them. How the source made its calls: active means hit-call score of the fitted dose curve at least 0.9, where 1 is the maximum; inactive means score below 0.9.
API: response.call in t for active, f for inactive

Take a look at these entries with their results.
Query :: Please indicate how the test categorized CN(C[C@@H](CC[N+]12CCC(C3CCCCC3)(CC1)CC2)c1ccc(Cl)c(Cl)c1)C(=O)c1cc(C(F)(F)F)cc(C(F)(F)F)c1 .
Result :: t

Query :: For this compound, state the assay outcome: NCc1cccc(C2CCN(C(=O)c3ccc(C#Cc4ccccc4F)o3)CC2)c1
Result :: t

Query :: // param item: O=C(OCCCCCCOC(=O)c1ccccc1)c1ccccc1 ; yields the recorded call
Result :: f

Query :: Hey, what did the test say about Clc1ccccc1C(c1ccccc1)(c1ccccc1)n1ccnc1 ?
Result :: t

More entries:
Query :: I'd appreciate the recorded outcome for Cc1cc2c(cc1C(F)(F)F)N(C(=O)Nc1ccc(Oc3cccnc3C)nc1)CC2 from this test.
Result :: t

Query :: I'd appreciate the recorded outcome for CCCCCCCCOC(=O)c1cc(O)c(O)c(O)c1 from this test.
Result :: f

Query :: Hi team, can someone confirm the assay call for CCCCCCCCOc1ccc(C(=O)c2ccccc2)c(O)c1 ?
Result :: f

Query :: Recorded test outcome, item C[C@]12CC[C@@H]3c4ccc(O)cc4CC[C@H]3[C@@H]1CCC2=O
Result :: t

Query :: Call for entry NC(=O)c1nc(-c2cccc(-c3cc(F)ccc3OCC(F)(F)C(F)(F)F)c2)n[nH]1 :
Result :: f

Query :: GET /call?item= CCO[Si](CCCNC(N)=O)(OCC)OCC returns the recorded outcome of this test.
Result :: f
